target: 3-phosphoinositide-dependent protein kinase 1 (Homo sapiens) (UniProt O15530); conditions: at 0.1 µM;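 also: values are mean inhibition of PDK1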
Sequence (O15530 whole entry): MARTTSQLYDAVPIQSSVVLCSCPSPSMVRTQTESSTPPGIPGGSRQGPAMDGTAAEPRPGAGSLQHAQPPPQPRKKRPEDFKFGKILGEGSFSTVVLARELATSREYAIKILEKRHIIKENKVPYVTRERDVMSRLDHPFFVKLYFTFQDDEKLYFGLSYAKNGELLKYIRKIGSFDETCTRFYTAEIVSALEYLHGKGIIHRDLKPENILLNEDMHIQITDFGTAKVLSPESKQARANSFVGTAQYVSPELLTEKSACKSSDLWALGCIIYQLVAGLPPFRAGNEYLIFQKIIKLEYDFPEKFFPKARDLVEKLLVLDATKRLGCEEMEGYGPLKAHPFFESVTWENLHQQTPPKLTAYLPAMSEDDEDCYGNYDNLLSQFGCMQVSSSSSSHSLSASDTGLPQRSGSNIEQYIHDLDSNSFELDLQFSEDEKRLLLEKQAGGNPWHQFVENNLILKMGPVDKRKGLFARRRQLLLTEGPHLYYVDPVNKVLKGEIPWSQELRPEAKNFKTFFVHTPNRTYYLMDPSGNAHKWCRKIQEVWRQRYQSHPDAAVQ
Readout: inhibition (%)
// note: answer is a bare numeric in %

Solved entries:
structure_notation=CC(C)COC(=O)c1ccc2c(c1)/C(=C/Nc1ccc(S(N)(=O)=O)cc1)C(=O)N2 assay_target="3-phosphoinositide-dependent protein kinase 1 (Homo sapiens) (UniProt O15530)" unit=% quantitative_readout=19.6
structure_notation=COc1cc(N2CCN(C(C)C)CC2)ccc1Nc1nc(Nc2ccc(F)cc2C(N)=O)c2cc[nH]c2n1 assay_target="3-phosphoinositide-dependent protein kinase 1 (Homo sapiens) (UniProt O15530)" unit=% quantitative_readout=-1.21

The reported inhibition of the molecule `CNC(=O)c1cccc(C#Cc2cncnc2Nc2ccc(OCc3cccc(F)c3)c(Cl)c2)c1` was 1

The reported inhibition of the molecule `Fc1cccc(COc2ccc(Nc3ncnc4sc(-c5ccco5)cc34)cc2Cl)c1` was -0.87

The reported inhibition of the molecule `O=C(Nc1n[nH]c2cc(-c3ccc(F)cc3)ccc12)C1CC1` was 1.87

====

target: Casein kinase I isoform gamma-3 (Homo sapiens) (UniProt Q9Y6M4); conditions: at 1 µM;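 also: mean inhibition of CK1-g3, GSK PKIS screen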
Sequence (Q9Y6M4 whole entry, looked up, canonical isoform): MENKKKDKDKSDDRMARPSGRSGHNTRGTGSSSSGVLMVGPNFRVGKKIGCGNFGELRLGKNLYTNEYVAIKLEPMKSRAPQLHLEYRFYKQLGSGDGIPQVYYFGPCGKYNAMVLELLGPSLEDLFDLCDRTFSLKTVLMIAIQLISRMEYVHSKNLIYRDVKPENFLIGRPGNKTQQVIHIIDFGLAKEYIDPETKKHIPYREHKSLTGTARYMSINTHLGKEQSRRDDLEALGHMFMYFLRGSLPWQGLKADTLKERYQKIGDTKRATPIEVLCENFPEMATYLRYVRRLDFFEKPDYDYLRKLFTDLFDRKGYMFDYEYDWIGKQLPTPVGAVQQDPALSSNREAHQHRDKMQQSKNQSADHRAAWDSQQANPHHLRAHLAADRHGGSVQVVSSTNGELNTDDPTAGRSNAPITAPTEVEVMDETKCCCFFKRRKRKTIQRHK
Readout: inhibition (%)
// note: answer is a bare numeric in %

structure_notation=O=C(O[C@H]1CN[C@H](C#Cc2cc3ncnc(Nc4ccc(Cc5ccccc5)cc4)c3s2)C1)N1CCOCC1 unit=% quantitative_readout=0.75
structure_notation=c1ccc(COc2ccc(Nc3ncnc4ccc(-c5ccco5)cc34)cc2)cc1 unit=% quantitative_readout=1.68
structure_notation=Nc1nc(-c2cccc(Cl)c2)c(-c2ccc3ncccc3n2)s1 unit=% quantitative_readout=24.7

For the next question, use this compound.
The reported inhibition of the compound `COc1cc(Nc2nccc(Nc3ccc4c(C)n[nH]c4c3)n2)cc(OC)c1OC` was -0.68

====

target: Platelet-derived growth factor receptor alpha (Homo sapiens); conditions: at 1 µM
Assign TRUE whenever inhibition does not fall below 30%; assign FALSE whenever it does.

Dear colleague, could you confirm whether `CCn1cc(-c2ccnc3[nH]ccc23)c(-c2cccc(NC(=O)Nc3ccc(OCc4ccccc4)cc3)c2)n1` has inhibition at or above 30%?
FALSE

Dear colleague, could you confirm whether `CN1CCC(n2cnc(-c3ccc(F)cc3)c2-c2ccnc(Nc3ccccc3)n2)CC1` has inhibition at or above 30%?
FALSE

Dear colleague, could you confirm whether `Nc1ncc(-c2cccc(S(N)(=O)=O)c2)c2scc(-c3ccc(F)c(Cl)c3)c12` has inhibition at or above 30%?
TRUE

====

Target: cGMP-dependent protein kinase 1 (Homo sapiens);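 also: listed percent inhibition of PRKG1 is a mean value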
Sequence (whole entry): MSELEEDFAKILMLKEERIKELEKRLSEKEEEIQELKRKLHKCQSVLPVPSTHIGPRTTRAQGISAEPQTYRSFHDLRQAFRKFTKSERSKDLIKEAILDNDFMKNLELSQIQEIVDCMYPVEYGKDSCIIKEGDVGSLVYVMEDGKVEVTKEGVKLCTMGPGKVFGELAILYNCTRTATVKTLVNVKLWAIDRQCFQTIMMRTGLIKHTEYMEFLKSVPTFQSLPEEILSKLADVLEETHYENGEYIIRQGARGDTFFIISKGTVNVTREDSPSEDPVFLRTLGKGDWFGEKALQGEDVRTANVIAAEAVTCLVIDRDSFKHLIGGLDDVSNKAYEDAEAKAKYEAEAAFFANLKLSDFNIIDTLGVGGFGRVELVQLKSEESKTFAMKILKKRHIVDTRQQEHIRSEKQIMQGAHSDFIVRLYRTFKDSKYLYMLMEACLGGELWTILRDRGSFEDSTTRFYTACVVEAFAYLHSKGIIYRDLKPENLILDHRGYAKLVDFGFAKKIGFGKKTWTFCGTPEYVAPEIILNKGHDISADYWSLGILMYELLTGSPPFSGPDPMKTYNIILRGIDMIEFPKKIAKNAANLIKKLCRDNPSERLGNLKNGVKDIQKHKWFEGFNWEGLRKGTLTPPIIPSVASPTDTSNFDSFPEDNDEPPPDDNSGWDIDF
Conditions: at 1 µM
Readout: inhibition (%)
// note: answer is a bare numeric in %

Solved entries:
structure_notation=Cc1ccc2c(-c3ccnc(Nc4ccccc4)n3)c(-c3ccc(F)cc3)nn2n1 assay_target="cGMP-dependent protein kinase 1 (Homo sapiens)" quantitative_readout=2.92
structure_notation=CCNC(=O)O[C@H]1CN[C@H](C#Cc2cc3ncnc(Nc4ccc(OCc5cccc(F)c5)c(Cl)c4)c3s2)C1 assay_target="cGMP-dependent protein kinase 1 (Homo sapiens)" quantitative_readout=3.36

The reported inhibition of the compound `COc1ccc(-c2cc3c(N)ncnc3o2)cc1` was 0.25

The reported inhibition of the compound `CCCN(CCS(C)(=O)=O)Cc1ccc(-c2ccc3ncnc(Nc4ccc(OCc5cccc(F)c5)c(Cl)c4)c3c2)o1` was 1.47

The reported inhibition of the compound `COC(=O)Nc1nc2ccc(S(=O)(=O)c3ccc(NC(=O)Nc4cc(C(F)(F)F)ccc4F)cc3)cc2[nH]1` was 3.86

The reported inhibition of the compound `O=C(Nc1n[nH]c2cc(-c3ccc(F)cc3)ccc12)C1CC1` was 6.58

The reported inhibition of the compound `CCn1c(-c2nonc2N)nc2c(C#CC(C)(C)O)ncc(OC3CCNCC3)c21` was 77.4

The reported inhibition of the compound `COc1cccc(-c2c[nH]c3c(N/N=C/c4ccncc4)ncnc23)c1` was 4.69

The reported inhibition of the compound `[O-][S+]1CCN(Cc2ccc(-c3ccc4ncnc(Nc5ccc(OCc6cccc(F)c6)c(Cl)c5)c4c3)o2)CC1` was 3.85

The reported inhibition of the compound `Nc1ncc(-c2cccc(S(N)(=O)=O)c2)c2scc(-c3ccc(F)c(Cl)c3)c12` was -0.14

The reported inhibition of the compound `CCOc1ccc2c(-c3ccnc(Nc4cccc(C(F)(F)F)c4)n3)cnn2n1` was 1.15

The reported inhibition of the compound `CCn1c(-c2nonc2N)nc2cnc(Oc3cccc(NC(=O)c4ccc(N(C)C)cc4)c3)cc21` was 73

The reported inhibition of the compound `CS(=O)(=O)CCNCc1ccc(-c2ccc3ncnc(Nc4ccc(OCc5ccccc5)c(C(F)(F)F)c4)c3c2)o1` was 0.85

The reported inhibition of the compound `CN(C)CCOc1ccc(-c2nc(-c3ccncc3)c(-c3ccc4c(c3)CC/C4=N\O)[nH]2)cc1` was 6.12

The reported inhibition of the compound `CC(=O)Nc1cccc(C#Cc2cncnc2Nc2ccc(OCc3cccc(F)c3)c(Cl)c2)c1` was 3.55

The reported inhibition of the compound `CC(=O)NCc1cccc(C#Cc2cncnc2Nc2ccc(OCc3cccc(F)c3)c(Cl)c2)c1` was 1.95

The reported inhibition of the compound `Nc1nc(-c2ccc(F)cc2)c(-c2ccc3ncccc3n2)s1` was 4.97

The reported inhibition of the compound `COc1ccc(-c2cc(-c3c[nH]nc3-c3ccccn3)ccn2)cc1` was 5.45

The reported inhibition of the compound `CCn1cc(-c2ccnc3[nH]ccc23)c(-c2cccc(NC(=O)Nc3ccc(OCc4ccccc4)cc3)c2)n1` was 1.15

====

tested on: Platelet-derived growth factor receptor alpha (Homo sapiens), P16234 [T674I]; details: at 1 µM
Sequence (P16234 whole entry T674I): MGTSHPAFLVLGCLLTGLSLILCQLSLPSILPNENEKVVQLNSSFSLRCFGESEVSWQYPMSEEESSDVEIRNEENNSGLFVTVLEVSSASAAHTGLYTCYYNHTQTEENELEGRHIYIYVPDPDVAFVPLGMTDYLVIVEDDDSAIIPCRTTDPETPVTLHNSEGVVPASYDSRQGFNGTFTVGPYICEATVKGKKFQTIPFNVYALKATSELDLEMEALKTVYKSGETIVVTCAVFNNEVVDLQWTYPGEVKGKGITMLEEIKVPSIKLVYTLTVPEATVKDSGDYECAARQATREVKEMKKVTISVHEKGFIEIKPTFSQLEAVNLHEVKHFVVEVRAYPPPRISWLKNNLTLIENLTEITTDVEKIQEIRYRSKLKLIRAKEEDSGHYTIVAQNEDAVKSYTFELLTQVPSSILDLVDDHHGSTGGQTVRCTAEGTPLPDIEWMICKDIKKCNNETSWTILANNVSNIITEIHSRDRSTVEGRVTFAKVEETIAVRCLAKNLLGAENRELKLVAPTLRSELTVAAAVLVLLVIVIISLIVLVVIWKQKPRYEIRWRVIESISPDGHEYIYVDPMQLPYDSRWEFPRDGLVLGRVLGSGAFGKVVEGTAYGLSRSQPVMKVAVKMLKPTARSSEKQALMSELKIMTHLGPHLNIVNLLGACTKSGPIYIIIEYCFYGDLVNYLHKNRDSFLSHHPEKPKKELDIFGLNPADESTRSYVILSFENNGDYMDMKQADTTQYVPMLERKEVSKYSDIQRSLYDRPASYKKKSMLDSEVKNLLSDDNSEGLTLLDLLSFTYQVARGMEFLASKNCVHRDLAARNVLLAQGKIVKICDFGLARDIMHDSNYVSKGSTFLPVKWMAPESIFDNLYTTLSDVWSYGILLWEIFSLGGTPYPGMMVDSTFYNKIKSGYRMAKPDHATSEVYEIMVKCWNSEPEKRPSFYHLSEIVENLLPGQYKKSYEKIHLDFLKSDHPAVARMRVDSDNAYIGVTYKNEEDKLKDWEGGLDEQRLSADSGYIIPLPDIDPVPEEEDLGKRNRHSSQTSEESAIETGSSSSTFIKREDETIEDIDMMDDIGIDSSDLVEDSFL
Readout: inhibition (%)
// note: answer is a bare numeric in %

Solved entries:
molecule=Clc1ccc(-c2nn3ncccc3c2-c2ccnc(Nc3ccccc3)n2)cc1 quantitative_readout=8.75
molecule="CC1=C(C(=O)Nc2cc(Cl)c3[nH]ncc3c2)C(c2ccc(C(F)(F)F)cc2)CC(=O)N1 (centres undefined)" quantitative_readout=7.54
molecule=COC(=O)c1sc(-n2cnc3cc(OC)c(OC)cc32)cc1OCc1ccccc1C(F)(F)F quantitative_readout=44.6
molecule=CCn1c(-c2nonc2N)nc2c(C#CC(C)(C)O)ncc(OC3CCNCC3)c21 quantitative_readout=28.3
molecule=Fc1ccc(-c2nn3ncccc3c2-c2ccnc(Nc3ccc4c(c3)OCCO4)n2)cc1 quantitative_readout=17.9
molecule=Nc1ncc(-c2cccc(S(N)(=O)=O)c2)c2scc(-c3ccc(F)c(Cl)c3)c12 quantitative_readout=10.5

The reported inhibition of the molecule `CCCN(CCS(C)(=O)=O)Cc1ccc(-c2ccc3ncnc(Nc4ccc(OCc5cccc(F)c5)c(Cl)c4)c3c2)o1` was 4.67

The reported inhibition of the molecule `CN1CCC(n2cnc(-c3ccc(F)cc3)c2-c2ccnc(N)n2)CC1` was 5.18

The reported inhibition of the molecule `COc1ccc(CNC(=O)c2ccc(-c3cc(-c4nnc(C)o4)ccc3C)cc2)cc1` was 6.47

====

Target: Tyrosine-protein kinase TXK (Homo sapiens);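 also: each listed value is a mean percent inhibition of TXK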
Sequence (whole entry): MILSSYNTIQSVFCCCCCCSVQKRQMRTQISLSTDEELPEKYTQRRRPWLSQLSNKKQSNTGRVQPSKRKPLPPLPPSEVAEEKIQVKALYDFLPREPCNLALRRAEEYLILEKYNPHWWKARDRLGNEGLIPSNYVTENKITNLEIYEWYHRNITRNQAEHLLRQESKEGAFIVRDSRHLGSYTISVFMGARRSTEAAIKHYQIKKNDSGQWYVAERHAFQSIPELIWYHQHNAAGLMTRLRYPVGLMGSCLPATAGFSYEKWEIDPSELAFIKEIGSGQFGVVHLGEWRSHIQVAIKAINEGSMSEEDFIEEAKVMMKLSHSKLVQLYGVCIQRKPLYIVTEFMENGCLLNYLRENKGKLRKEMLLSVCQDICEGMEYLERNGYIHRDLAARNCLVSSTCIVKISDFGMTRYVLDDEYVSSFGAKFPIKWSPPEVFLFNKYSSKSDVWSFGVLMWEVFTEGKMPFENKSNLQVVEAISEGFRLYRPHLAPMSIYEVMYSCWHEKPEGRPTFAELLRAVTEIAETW
Conditions: at 0.1 µM
Overview of recorded inhibition for various molecules
Please format your answer as a value with the unit trailing.

Solved entries:
molecule=CCNC(=O)O[C@H]1CN[C@H](C#Cc2cc3ncnc(Nc4ccc(OCc5cccc(F)c5)c(Cl)c4)c3s2)C1 readout=inhibition result=3.06%
molecule=COc1ccc(-c2cc3c(N)ncnc3o2)cc1 readout=inhibition result=0.91%
molecule=NC(=O)c1sc(-n2cnc3ccc(C(F)(F)F)cc32)cc1OCc1ccccc1Br readout=inhibition result=1.39%

The reported inhibition of the molecule `[O-][S+]1CCN(Cc2ccc(-c3ccc4ncnc(Nc5ccc(OCc6cccc(F)c6)c(Cl)c5)c4c3)o2)CC1` was -0.35%

The reported inhibition of the molecule `CCn1c(-c2nonc2N)nc2c(C#CC(C)(C)O)nc(OC[C@H](N)c3ccccc3)cc21` was 7.32%

The reported inhibition of the molecule CC1=C(C(=O)Nc2cc(Cl)c3[nH]ncc3c2)C(c2ccc(C(F)(F)F)cc2)CC(=O)N1 (centres undefined) was 2.42%

The reported inhibition of the molecule `CNC(=O)c1cccc(C#Cc2cncnc2Nc2ccc(OCc3cccc(F)c3)c(Cl)c2)c1` was 1.86%

The reported inhibition of the molecule `CC(C)(CO)CNC(=O)c1ccc2c(c1)/C(=N/Nc1ccc(S(N)(=O)=O)cc1)C(=O)N2` was -0.15%

The reported inhibition of the molecule `CN1CCC(n2cnc(-c3ccc(F)cc3)c2-c2ccnc(Nc3ccccc3)n2)CC1` was 3.25%
